assay: Rat pharmacokinetic study of ziprasidone and ziprasidone sulfoxide with resveratrol or quercetin; settings: male, Sprague-Dawley, plasma, po, 15 mg/kg, Tmax, ziprasidone 15 mg/kg oral + quercetin 50 mg/kg i.g., rats, n=6
measure name: Tmax (h)

compound: O=C1Cc2cc(CCN3CCN(c4nsc5ccccc45)CC3)c(Cl)cc2N1 [ziprasidone, Ziprasidone]
reading: 4

====

In this section, each of the compounds is paired with its reported Relative activity (%).
system: rat liver microsomes (RLM); assay: Inhibitor screening on ziprasidone metabolism in RLM; format: in vitro ADME; conditions: 100 μM inhibitor, 0.3 mg/mL RLM, ziprasidone 10 μM, 20 min
measure name: Relative activity (%)

compound: COc1cc(CCC(C)=O)ccc1O
system under test: rat liver microsomes (RLM)
measure name: Relative activity (%)
unit of measurement: %
reading: 93.56
//
compound: CCCCc1nc(Cl)c(CO)n1Cc1ccc(-c2ccccc2-c2nn[nH]n2)cc1 [Losartan]
system under test: rat liver microsomes (RLM)
measure name: Relative activity (%)
unit of measurement: %
reading: 74.09
//
compound: O=c1c(-c2ccc(O)cc2)coc2cc(O)ccc12
system under test: rat liver microsomes (RLM)
measure name: Relative activity (%)
unit of measurement: %
reading: 121.70
//
compound: CCOC(=O)C1=C(C)NC(C)=C(C(=O)OC)C1c1cccc(Cl)c1Cl (centres unmarked)
system under test: rat liver microsomes (RLM)
measure name: Relative activity (%)
unit of measurement: %
reading: 28.36
//
compound: CCCCC1=NC2(CCCC2)C(=O)N1Cc1ccc(-c2ccccc2-c2nnn[nH]2)cc1
system under test: rat liver microsomes (RLM)
measure name: Relative activity (%)
unit of measurement: %
reading: 72.41
//
compound: CCOc1nc2cccc(C(=O)O)c2n1Cc1ccc(-c2ccccc2-c2nnn[nH]2)cc1
system under test: rat liver microsomes (RLM)
measure name: Relative activity (%)
unit of measurement: %
reading: 54.29
//
compound: C=C1C[C@@]23CC[C@H]4[C@@](C)(CCC[C@@]4(C)C(=O)O[C@@H]4O[C@H](CO)[C@@H](O)[C@H](O)[C@H]4O)[C@@H]2CC[C@]1(O[C@@H]1O[C@H](CO)[C@@H](O)[C@H](O)[C@H]1O)C3 [Rubusoside]
system under test: rat liver microsomes (RLM)
measure name: Relative activity (%)
unit of measurement: %
reading: 103.75
//
compound: O=c1cc(-c2ccccc2)oc2cc(O)cc(O)c12
system under test: rat liver microsomes (RLM)
measure name: Relative activity (%)
unit of measurement: %
reading: 36.09
